Data origin, for the record: ChEMBL document CHEMBL1131114

Target: Sodium-dependent serotonin transporter (Rattus norvegicus, UniProt P31652)
Sequence (P31652 whole entry): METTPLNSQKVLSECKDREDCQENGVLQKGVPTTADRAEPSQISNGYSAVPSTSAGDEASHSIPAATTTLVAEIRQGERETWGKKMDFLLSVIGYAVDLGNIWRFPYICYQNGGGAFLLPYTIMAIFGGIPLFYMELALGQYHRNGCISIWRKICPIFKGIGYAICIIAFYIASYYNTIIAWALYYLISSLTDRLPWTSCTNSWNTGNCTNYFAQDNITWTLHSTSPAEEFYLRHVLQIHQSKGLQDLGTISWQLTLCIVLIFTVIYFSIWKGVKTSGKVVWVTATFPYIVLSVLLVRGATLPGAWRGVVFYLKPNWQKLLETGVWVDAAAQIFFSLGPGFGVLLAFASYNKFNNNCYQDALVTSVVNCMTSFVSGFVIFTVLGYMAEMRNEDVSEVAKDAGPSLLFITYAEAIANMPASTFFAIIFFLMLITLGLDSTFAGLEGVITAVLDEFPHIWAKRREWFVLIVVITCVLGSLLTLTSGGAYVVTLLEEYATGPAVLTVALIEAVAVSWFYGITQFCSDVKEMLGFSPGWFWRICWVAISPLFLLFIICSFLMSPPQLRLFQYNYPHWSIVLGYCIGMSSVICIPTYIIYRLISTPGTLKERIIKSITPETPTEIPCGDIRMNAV
pIC50: −log10 of the molar value.

- compound: "Fc1ccc([C@@H]2CC3CCC(N3)[C@H]2COc2ccc3c(c2)OCO3)cc1 (stereo in doubt; 4c)"
  subject_of_test: "Sodium-dependent serotonin transporter (Rattus norvegicus, UniProt P31652)"
  pIC50: 8.25
- compound: "Fc1ccc([C@@H]2CC3CCC(N3)[C@@H]2COc2ccc3c(c2)OCO3)cc1 (some centres undefined)"
  subject_of_test: "Sodium-dependent serotonin transporter (Rattus norvegicus, UniProt P31652)"
  pIC50: 7.25
- compound: "CN1C2CC[C@@H]1C[C@H](c1ccc(F)cc1)[C@@H]2COc1ccc2c(c1)OCO2"
  subject_of_test: "Sodium-dependent serotonin transporter (Rattus norvegicus, UniProt P31652)"
  pIC50: 6.53
- compound: "CN1C2CC[C@@H]1C[C@@H](c1ccc(F)cc1)[C@@H]2COc1ccc2c(c1)OCO2"
  subject_of_test: "Sodium-dependent serotonin transporter (Rattus norvegicus, UniProt P31652)"
  pIC50: 6.37
